Hello, the source for this data is patent US20240166624A1, in case you need it.

# reported pEC50; entries follow
# assay.target: PPARG/RXRA LBD heterodimer (Homo sapiens)
# Construct: His-TEV-Q203-Y477; Uniprot ID P37231-2; made in house; host or cells: E. coli
# Sequence (P37231 231-505): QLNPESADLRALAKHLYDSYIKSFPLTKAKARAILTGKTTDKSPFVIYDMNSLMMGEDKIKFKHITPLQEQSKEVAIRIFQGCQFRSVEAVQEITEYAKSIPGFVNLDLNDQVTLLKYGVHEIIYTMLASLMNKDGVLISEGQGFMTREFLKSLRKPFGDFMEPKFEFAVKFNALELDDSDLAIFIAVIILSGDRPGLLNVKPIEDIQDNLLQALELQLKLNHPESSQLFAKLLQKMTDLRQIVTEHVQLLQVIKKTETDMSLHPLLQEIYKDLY
# Sequence (P19793 228-462 partner limits assumed): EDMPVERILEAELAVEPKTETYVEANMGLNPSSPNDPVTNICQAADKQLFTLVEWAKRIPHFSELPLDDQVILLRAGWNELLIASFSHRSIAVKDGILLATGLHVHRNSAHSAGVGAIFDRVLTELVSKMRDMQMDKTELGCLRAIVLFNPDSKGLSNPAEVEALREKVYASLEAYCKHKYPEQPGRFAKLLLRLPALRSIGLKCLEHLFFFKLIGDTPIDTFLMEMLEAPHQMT
# assay.info: PPARγ-MED1 blockade assay (TR-FRET, biotinylated MED1 LxxLL peptide)
# Assay type: biochemical
# condition: WT PPARG LBD/WT RXRA LBD, 80 nM Rosiglitazone, 3 hours
pEC50: −log10 of the molar value.

- compound: "CN(C)[C@H]1CCN(c2c(F)cc3[nH]c(-c4cc(C#N)ccc4Cl)cc(=O)c3c2F)C1"
  pEC50: "5.00 to 6.00"
- compound: "N#Cc1ccc(Cl)c(-c2cc(=O)c3c(F)c(N4CCN(CC(F)(F)F)CC4)c(F)cc3[nH]2)c1"
  pEC50: "6.00 to 7.00"
- compound: "CN(C)C(=O)[C@@H]1CCCN(c2c(F)cc3[nH]c(-c4cc(C#N)ccc4Cl)cc(=O)c3c2F)C1"
  pEC50: "6.00 to 7.00"

Next item in the queue.
*Q* Give the measured pEC50 for `CO[C@H]1CCN(c2c(F)cc3[nH]c(-c4cc(C#N)ccc4Cl)cc(=O)c3c2F)C1`
*A* 6.00 to 7.00
